// provenance: paper PMC6270011

Tested on: human red blood cells (erythrocytes)
Type: cell-based
Settings: human erythrocytes, 37 °C, 35 min
Response field label takes class 1 when Haemolytic activity, percentage of lysis (Average ± SD) is strictly below 4% and class 0 in all other cases.

Some solved cases for reference:
- Cc1cc(C)cc(-c2csc(C=O)c2)c1 [2g]: class 0
- O=Cc1cc(-c2ccc(F)c(Cl)c2)cs1 [2i]: class 0
- COc1ccc(-c2csc(C=O)c2)cc1 [2f]: class 0
- Cc1ccc(-c2csc(C=O)c2)s1 [2j, 5-Methyl-2,3-bisthiophene-5-carbaldehyde]: class 0
- N#Cc1cc(-c2csc(C=O)c2)cc(C(F)(F)F)c1 [2d]: class 1

Just wondering, is Haemolytic activity, percentage of lysis (Average ± SD) of Cc1ccc(-c2csc(C=O)c2)cc1 [2e, 4-p-Tolylthiophene-2-carbaldehyde] below 4%? class 1

Determine if O=Cc1cc(-c2cc(C(F)(F)F)cc(C(F)(F)F)c2)cs1 [2b] shows Haemolytic activity, percentage of lysis (Average ± SD) strictly lower than 4%. class 0

Below 4% on Haemolytic activity, percentage of lysis (Average ± SD)? Entry O=Cc1cc(-c2ccc(Cl)c(Cl)c2)cs1 [2h] class 1

====

Experiment: Nitric oxide (NO) scavenging assay
Assay type: biochemical
Conditions: 25 µg/mL; read-out: % Activity at 25 µg (NO scavenging)
Procedure: Nitric oxide (NO) is a free radical causing inflammatory disorders and cancer in the human body when sodium nitroprusside decomposes to produce nitric oxide. […] The reaction mixtures comprising sample solution (2 µL), phosphate buffer (17 µL) and sodium nitroprusside (20 µL) were incubated at 37 °C for 2 h in well plates. […] The absorbance was measured at 528 nm by using an ELISA reader. […]
MEASUREMENT NAME: inhibition (%)
Field: numeric (%). Do not append units.

Answered examples (8):
- O=Cc1cc(-c2cc(C(F)(F)F)cc(C(F)(F)F)c2)cs1: 10
- O=Cc1cc(-c2ccc(F)c(Cl)c2)cs1: 12
- O=Cc1cc(-c2ccccc2)cs1: 12
- O=C1O[C@H]([C@@H](O)CO)C(O)=C1O [Ascorbic Acid, ascorbic acid, reference compound]: 40
- COc1ccc(-c2csc(C=O)c2)cc1: 5
- O=Cc1cc(-c2ccc(Cl)s2)cs1: 18
- N#Cc1cc(-c2csc(C=O)c2)cc(C(F)(F)F)c1: 12
- Cc1cc(C)cc(-c2csc(C=O)c2)c1: 13

Indicate the recorded inhibition value for this molecule: O=Cc1cc(-c2ccc(Cl)c(Cl)c2)cs1 13

Retrieve inhibition measured for Cc1ccc(-c2csc(C=O)c2)cc1 and print it. -15

Specify inhibition for Cc1ccc(-c2csc(C=O)c2)s1 and stop. 15

====

Listing of recorded inhibition by entry.
Assay: Nitric oxide (NO) scavenging assay
Assay type: biochemical
Settings: 50 µg/mL; read-out: % Activity at 50 µg (NO scavenging)
Note: state the figure and append the unit.

- O=Cc1cc(-c2ccc(F)c(Cl)c2)cs1: 57%
- O=Cc1cc(-c2ccccc2)cs1: 33%
- N#Cc1cc(-c2csc(C=O)c2)cc(C(F)(F)F)c1: 58%
- COc1ccc(-c2csc(C=O)c2)cc1: 10%
- Cc1cc(C)cc(-c2csc(C=O)c2)c1: 28%

Here is another molecule to look at.
Find the measured inhibition of Cc1ccc(-c2csc(C=O)c2)s1 and report it. 50%
